Target: T1, human prolactin receptor (PRLR) (human, UniProt P16471 25-622)
T1 sequence: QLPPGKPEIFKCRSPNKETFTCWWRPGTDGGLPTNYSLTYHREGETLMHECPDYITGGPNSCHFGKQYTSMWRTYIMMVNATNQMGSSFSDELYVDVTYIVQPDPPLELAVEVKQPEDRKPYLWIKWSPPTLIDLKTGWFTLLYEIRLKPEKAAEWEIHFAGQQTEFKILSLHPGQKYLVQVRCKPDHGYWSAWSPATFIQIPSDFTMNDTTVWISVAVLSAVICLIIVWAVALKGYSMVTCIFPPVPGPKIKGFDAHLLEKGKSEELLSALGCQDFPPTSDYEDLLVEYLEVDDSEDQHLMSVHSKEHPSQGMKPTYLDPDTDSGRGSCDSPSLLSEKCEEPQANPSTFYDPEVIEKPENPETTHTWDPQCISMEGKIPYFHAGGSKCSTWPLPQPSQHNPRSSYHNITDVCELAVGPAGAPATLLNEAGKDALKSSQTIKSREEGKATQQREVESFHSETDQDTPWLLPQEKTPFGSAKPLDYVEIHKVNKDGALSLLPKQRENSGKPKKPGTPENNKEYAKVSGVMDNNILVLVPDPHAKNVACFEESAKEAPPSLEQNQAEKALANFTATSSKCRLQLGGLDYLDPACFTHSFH
Assay: cell-based or functional assay
Reported Metric: IC50, cell viability, MCF7/PRLR cells

Use these answered entries as a reference point.
Please report the recorded IC50, cell viability, MCF7/PRLR cells for H1H6765P-DM1 (antibody, human IgG1, V domains shown, DM1 conjugated through SMCC linker; attachment residues not stated) VH: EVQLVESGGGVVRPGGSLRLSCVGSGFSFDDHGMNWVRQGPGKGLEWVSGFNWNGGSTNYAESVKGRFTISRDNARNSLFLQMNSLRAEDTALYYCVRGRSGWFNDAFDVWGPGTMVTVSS VL: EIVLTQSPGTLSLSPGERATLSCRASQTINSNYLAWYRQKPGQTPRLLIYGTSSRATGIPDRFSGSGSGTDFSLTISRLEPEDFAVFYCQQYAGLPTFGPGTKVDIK .
0.3 nM

Try H1H6782P-mc-VC-PAB-MMD (antibody, human IgG1, V domains shown, MMD conjugated through mc-VC-PAB linker; attachment residues not stated) VH: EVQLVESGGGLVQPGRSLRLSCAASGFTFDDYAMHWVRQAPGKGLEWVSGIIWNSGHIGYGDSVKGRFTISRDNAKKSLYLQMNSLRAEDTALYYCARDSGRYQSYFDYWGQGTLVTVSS VL: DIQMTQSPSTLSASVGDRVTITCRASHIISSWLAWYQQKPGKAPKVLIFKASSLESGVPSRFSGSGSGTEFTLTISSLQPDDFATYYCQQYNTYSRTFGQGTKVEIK next.
0.3 nM

// switching to the query binder
Recorded IC50, cell viability, MCF7/PRLR cells for H1H6953N-DM1 (antibody, human IgG1, V domains shown, DM1 conjugated through SMCC linker; attachment residues not stated) VH: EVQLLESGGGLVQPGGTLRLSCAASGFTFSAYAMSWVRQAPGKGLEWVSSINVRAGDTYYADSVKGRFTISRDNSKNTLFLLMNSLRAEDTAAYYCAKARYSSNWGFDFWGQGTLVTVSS VL: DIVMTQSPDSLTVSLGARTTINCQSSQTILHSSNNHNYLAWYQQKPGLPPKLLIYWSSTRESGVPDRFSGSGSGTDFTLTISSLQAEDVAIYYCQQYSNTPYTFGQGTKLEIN , please?
0.3 nM
